# Tested system: human calcium-sensing receptor (CaSR) (Homo sapiens, UniProt P41180)
# Sequence (P41180 20-1078): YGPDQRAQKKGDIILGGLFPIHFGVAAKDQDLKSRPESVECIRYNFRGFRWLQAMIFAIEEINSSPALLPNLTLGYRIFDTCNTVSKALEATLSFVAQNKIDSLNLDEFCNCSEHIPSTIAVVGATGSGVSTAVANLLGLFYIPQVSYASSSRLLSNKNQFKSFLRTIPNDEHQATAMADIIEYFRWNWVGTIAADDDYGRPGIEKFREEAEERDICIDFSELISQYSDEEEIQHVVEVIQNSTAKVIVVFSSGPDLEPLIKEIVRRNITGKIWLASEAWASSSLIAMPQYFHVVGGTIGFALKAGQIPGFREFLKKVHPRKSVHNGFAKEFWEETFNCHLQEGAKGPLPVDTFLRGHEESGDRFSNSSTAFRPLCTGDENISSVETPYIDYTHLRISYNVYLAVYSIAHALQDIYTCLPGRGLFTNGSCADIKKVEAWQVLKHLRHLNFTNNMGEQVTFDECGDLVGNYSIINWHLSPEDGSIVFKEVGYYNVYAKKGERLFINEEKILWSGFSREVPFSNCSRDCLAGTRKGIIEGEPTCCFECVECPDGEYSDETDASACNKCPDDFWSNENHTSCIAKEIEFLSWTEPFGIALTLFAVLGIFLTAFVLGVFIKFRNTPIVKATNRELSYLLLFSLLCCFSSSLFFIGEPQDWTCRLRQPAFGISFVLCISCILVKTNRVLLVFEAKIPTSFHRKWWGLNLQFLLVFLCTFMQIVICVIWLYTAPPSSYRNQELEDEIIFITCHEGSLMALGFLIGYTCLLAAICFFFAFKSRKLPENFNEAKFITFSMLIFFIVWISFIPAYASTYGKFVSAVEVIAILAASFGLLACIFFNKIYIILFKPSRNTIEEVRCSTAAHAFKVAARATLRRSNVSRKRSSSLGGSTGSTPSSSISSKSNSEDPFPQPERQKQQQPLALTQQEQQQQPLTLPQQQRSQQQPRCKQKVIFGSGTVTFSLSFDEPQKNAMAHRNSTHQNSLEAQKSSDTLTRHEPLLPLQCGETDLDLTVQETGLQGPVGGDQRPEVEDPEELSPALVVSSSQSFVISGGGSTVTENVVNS
# Procedure details: Inhibitory activity on calcium-sensing receptor (CaSR), intracellular calcium increase as indicator (FLIPR, CHO/hCaSR)
# Condition set: CHO cells stably expressing human CaSR; inhibition of intracellular Ca increase induced by extracellular CaCl2
We begin with a simple list: items and their reported IC50.

Reference set, count: 3
Compound	IC50
COc1cccc([C@@H](C)OC[C@H](O)CN2CCC[C@H]2Cc2ccc(C)c(F)c2)c1CCC(=O)O [Example 18]	≤ 3.38 µM
Cc1ccc(C[C@@H]2CCCN2C[C@@H](O)CO[C@H](C)c2ccccc2CCCCCC(=O)O)cc1F [Example 76]	≤ 3.29 µM
Cc1cc(CCC(=O)O)c([C@@H](C)OC[C@H](O)CN2CCC[C@H]2Cc2ccc(Cl)c(F)c2)cc1F [Example 148]	≤ 3.23 µM

// field: IC50; key: CC[C@@H](OC[C@H](O)CN1CCC[C@H]1Cc1ccc(Cl)c(F)c1)c1cc(F)ccc1CCC(=O)O [Example 135] ; value = ≤ 3.23 µM

IC50 in this record for CC[C@@H](OC[C@H](O)CN1CCC[C@H]1Cc1ccc(C)c(F)c1)c1cccc(Cl)c1CCC(=O)O [Example 112] : ≤ 3.25 µM

According to the records, this compound CC[C@@H](OC[C@H](O)CN1CCC[C@H]1Cc1ccc(Cl)c(Cl)c1)c1cc(F)cc(F)c1CCC(=O)O [Example 110] displays IC50 of ≤ 3.02 µM

Record Cc1ccc(C[C@@H]2CCCN2C[C@@H](O)COC(C)c2c(F)cccc2CCC(=O)O)cc1F (stereo partly shown) [Example 31] , field IC50: ≤ 3.47 µM

Form: compound = CCc1cc(C[C@@H]2CCCN2C[C@@H](O)CO[C@H](CC)c2cccc(C)c2CCC(=O)O)ccc1Cl [Example 122] ; IC50 = ≤ 3.19 µM

// sample Cc1ccc(C[C@@H]2CCCN2C[C@@H](O)COC(C)c2c(C)cccc2CCC(=O)O)cc1F (stereo partly shown) [Example 32] , its IC50 was ≤ 3.5 µM

// CCc1cc(C[C@@H]2CCCN2C[C@@H](O)CO[C@H](CC)c2ccc(C)cc2CCC(=O)O)ccc1Cl [Example 103] : IC50 value = ≤ 3.19 µM

Form field IC50, entry Cc1ccc(C[C@@H]2CCCN2C[C@@H](O)CO[C@H](C)c2cc(F)c(F)cc2CCC(=O)O)cc1Cl [Example 176] : ≤ 3.23 µM

Entry CC[C@@H](OC[C@H](O)CN1CCC[C@H]1Cc1ccc(C)c(F)c1)c1ccc(C)cc1CCC(=O)O [Example 45] — recorded IC50 = ≤ 3.39 µM
